Recorded values, source the MegaScale stability set (Tsuboyama et al. 2023).

B1: EEHEE_rd4_0363 (parent)
chain: VTVDIKGMEYHFDNPEEAKKFAERMAKELGGELKVENGTLKVE

Variants of: B1
Assay: folding stability dG (cDNA display proteolysis); higher = more stable
Settings: PBS, room temperature
# maps each entry to its folding stability dG
MEASURED_PROPERTY: folding stability dG

    mutation_annotation           result
 0                 D13N    1.88 kcal/mol
 1                 K41W    1.65 kcal/mol
 2                 R24P  -0.281 kcal/mol
 3                  V1A    1.48 kcal/mol
 4                 A22F    1.23 kcal/mol
 5                  V1L    2.03 kcal/mol
 6                 F12I  -0.023 kcal/mol
 7                 E36F    1.88 kcal/mol
 8                 H11V    1.84 kcal/mol
 9                  D4H    2.91 kcal/mol
10                 E36K     1.4 kcal/mol
11                 V35E    1.96 kcal/mol
12                 E43L    2.66 kcal/mol
13                 K27C    2.48 kcal/mol
14                 E32R    2.23 kcal/mol
15                 K20W    1.67 kcal/mol
16                 N14L    1.02 kcal/mol
17                  I5K   0.088 kcal/mol
18                 K34T     1.9 kcal/mol
19                 V35C    2.78 kcal/mol
20                 L33M    1.61 kcal/mol
21                 E17M    1.39 kcal/mol
22                 K34R    2.21 kcal/mol
23                  M8T    2.26 kcal/mol
24                 R24F    2.28 kcal/mol
25                 N37F    1.41 kcal/mol
26                  V1H    1.63 kcal/mol
27                 E32P   0.989 kcal/mol
28                 E32H    2.45 kcal/mol
29                 D13W    1.58 kcal/mol
30                 T39V    2.77 kcal/mol
31                 A26N   0.898 kcal/mol
32                 E32M    2.31 kcal/mol
33                 H11W    2.26 kcal/mol
34                 K41N   0.986 kcal/mol
35                 K41P   0.852 kcal/mol
36                 R24A    2.11 kcal/mol
37                 M25R    1.13 kcal/mol
38                 Y10A   0.161 kcal/mol
39                 A26G   0.834 kcal/mol
40                 H11I    1.77 kcal/mol
41                  T2V    2.21 kcal/mol
42                  E9A    1.99 kcal/mol
43                 G31C    2.36 kcal/mol
44                  K6F     3.4 kcal/mol
45                 N37G    1.97 kcal/mol
46                  T2Q    1.03 kcal/mol
47                 V35Q    1.62 kcal/mol
48                 M25D   0.142 kcal/mol
49                  I5S   0.289 kcal/mol
50                 K41H    1.61 kcal/mol
51                 A18T   -0.52 kcal/mol
52                 N37W   0.999 kcal/mol
53                 P15C    2.33 kcal/mol
54                 E16I    1.71 kcal/mol
55                  E9T    2.55 kcal/mol
56                 R24Y    2.34 kcal/mol
57                 D13G    1.51 kcal/mol
58                 K27S    1.81 kcal/mol
59                 E32S    2.48 kcal/mol
60                  E9G    1.26 kcal/mol
61                 E17T    1.23 kcal/mol
62                 V35L    1.93 kcal/mol
63                  T2K    1.95 kcal/mol
64                 V42I       2 kcal/mol
65                 E32Q    2.41 kcal/mol
66                 K34A    1.33 kcal/mol
67                 L29P    0.59 kcal/mol
68                 K41I     2.1 kcal/mol
69                  V1P   0.612 kcal/mol
70                 G30D    1.52 kcal/mol
71                 P15Y    3.25 kcal/mol
72                 K41S    1.45 kcal/mol
73                 L33Q   0.872 kcal/mol
74                  V1K     1.2 kcal/mol
75                 D13S       2 kcal/mol
76                  D4Y    3.35 kcal/mol
77                 P15V    2.17 kcal/mol
78                 H11Q    1.39 kcal/mol
79                 E17F   0.922 kcal/mol
80                 K20S    1.95 kcal/mol
81                 E16N    1.41 kcal/mol
82                 E16L    1.65 kcal/mol
83                 K20Y    1.57 kcal/mol
84                 N14K    1.08 kcal/mol
85                 D13E     1.9 kcal/mol
86                 E32V    2.84 kcal/mol
87                  K6R    2.17 kcal/mol
88                 K41Q    1.24 kcal/mol
89                 G38M     1.1 kcal/mol
90                  V1Y    2.55 kcal/mol
